biological target: human TLR8 (Homo sapiens, UniProt Q9NR97); assay: HEK293-Blue-hTLR-8 cells assay; conditions: HEK293-Blue-hTLR8 cells, R848 stimulation, 20 hrs, SEAP reporter; read-out: HEK/hTLR8 IC50
Sequence (Q9NR97 27-1041): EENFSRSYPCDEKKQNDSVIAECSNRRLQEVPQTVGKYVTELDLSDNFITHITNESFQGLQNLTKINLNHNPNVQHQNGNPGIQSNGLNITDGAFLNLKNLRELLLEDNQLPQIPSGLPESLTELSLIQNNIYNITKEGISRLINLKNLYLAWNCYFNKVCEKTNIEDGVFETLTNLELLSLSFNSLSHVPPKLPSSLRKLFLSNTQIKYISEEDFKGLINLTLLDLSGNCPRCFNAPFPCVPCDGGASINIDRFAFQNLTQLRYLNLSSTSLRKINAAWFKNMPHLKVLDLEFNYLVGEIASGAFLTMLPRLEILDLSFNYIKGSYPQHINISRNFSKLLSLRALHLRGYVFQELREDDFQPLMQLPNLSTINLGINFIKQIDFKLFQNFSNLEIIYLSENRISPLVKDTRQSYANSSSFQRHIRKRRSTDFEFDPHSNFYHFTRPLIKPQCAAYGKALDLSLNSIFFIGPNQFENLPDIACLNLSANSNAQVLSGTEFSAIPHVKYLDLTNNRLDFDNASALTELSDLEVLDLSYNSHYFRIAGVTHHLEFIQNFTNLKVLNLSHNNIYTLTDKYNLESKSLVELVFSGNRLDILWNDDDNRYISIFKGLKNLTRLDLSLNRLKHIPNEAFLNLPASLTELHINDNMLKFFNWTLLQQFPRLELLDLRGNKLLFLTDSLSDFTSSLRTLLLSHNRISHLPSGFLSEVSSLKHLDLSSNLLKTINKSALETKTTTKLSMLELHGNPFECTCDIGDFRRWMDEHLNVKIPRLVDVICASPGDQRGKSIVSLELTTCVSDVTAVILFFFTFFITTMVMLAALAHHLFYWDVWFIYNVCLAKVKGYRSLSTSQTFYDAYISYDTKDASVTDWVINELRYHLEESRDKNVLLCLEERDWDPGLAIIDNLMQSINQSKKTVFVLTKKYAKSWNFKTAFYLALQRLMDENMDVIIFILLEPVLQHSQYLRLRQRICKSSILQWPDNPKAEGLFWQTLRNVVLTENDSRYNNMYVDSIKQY
reportedMetric: IC50 (µM)

C[C@@H]1CN(c2ccc(C#N)c3ncccc23)C[C@@H]2C[C@H](c3ccc(N4CCNCC4)nc3)CCN21 (stereo in doubt) [Example 2]; 0.019
C[C@@H]1CN(c2ccc(C#N)c3ncccc23)C[C@@H]2C[C@@H](NCc3ccc(N4CCNCC4)cc3)CCN21 [Example 17]; 0.054
C[C@@H]1CN(c2ccc(C#N)c3ncccc23)C[C@@H]2C[C@H](c3ccc(N4CCNCC4)nc3)CCN21 [Example 4]; 0.018
C[C@@H]1CN(c2ccc(C#N)c3ncccc23)C[C@@H]2C[C@H](NCc3ccc(N4CCNCC4)cc3)CCN21 [Example 1]; 0.067
C[C@@H]1CN(c2ccc(C#N)c3ncccc23)C[C@@H]2C[C@H](Nc3ccc(C[C@@H]4CNCCO4)cc3)CCN21 [Example 21]; 0.054

[A] C[C@@H]1CN(c2ccc(C#N)c3ncccc23)C[C@@H]2C[C@H](N3CC(c4ccc(N5CCNCC5)cc4)C3)CCN21 [Example 9]
[B] [2H]c1ccc2c(N3C[C@@H]4C[C@@H](N5CC(c6ccc(N7C[C@@H](N)[C@H](OC)C7)cc6)C5)CCN4[C@H](C)C3)ccc(C#N)c2n1 [Example 36]
// query Input pair: A , B . Output: entry with lower IC50. Your choice should be expressed through its label.
// result B

---

Molecular target: human TLR7 (Homo sapiens)
Sequence (Q9NYK1 27-1049): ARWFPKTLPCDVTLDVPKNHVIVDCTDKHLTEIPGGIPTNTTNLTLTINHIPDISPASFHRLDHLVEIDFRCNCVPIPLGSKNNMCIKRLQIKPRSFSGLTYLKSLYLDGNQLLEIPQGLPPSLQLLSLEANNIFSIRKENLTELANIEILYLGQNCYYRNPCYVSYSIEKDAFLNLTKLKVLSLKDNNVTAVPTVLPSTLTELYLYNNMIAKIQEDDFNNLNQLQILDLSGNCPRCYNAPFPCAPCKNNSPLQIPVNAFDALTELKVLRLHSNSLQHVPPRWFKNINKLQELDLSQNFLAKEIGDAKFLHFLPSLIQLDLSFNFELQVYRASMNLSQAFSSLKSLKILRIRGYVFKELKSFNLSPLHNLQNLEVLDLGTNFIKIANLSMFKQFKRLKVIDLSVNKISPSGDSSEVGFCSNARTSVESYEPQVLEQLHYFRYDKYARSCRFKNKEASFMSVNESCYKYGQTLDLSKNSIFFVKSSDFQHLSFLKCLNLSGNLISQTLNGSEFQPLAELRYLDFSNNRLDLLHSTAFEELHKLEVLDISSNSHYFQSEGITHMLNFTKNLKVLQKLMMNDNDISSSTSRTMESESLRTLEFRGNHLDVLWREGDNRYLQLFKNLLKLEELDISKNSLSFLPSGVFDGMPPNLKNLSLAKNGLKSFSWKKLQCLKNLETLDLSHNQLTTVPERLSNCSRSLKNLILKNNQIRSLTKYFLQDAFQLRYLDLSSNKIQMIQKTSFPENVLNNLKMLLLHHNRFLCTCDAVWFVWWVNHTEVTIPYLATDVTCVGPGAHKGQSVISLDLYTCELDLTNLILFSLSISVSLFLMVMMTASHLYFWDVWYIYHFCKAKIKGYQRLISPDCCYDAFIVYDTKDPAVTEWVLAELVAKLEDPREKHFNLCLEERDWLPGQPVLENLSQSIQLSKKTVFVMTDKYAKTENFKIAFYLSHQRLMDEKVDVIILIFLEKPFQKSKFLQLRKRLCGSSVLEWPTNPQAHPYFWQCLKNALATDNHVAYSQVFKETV
Assay: HEK293-Blue-hTLR-7 cells assay
Settings: HEK293-Blue-hTLR7 cells, R848 stimulation, 20 hrs, SEAP reporter; read-out: HEK/hTLR7 IC50
Method: A stable HEK293-Blue-hTLR-7 cell line was purchased from InvivoGen (Cat. #: hkb-htlr7, San Diego, California, USA). These cells were originally designed for studying the stimulation of human TLR7 by monitoring the activation of NF-κB. […] The cell culture supernatant SEAP reporter activity was determined using QUANTI-Blue™ kit (Cat. #: rep-qb1, Invivogen, San Diego, Ca, USA) at a wavelength of 640 nm, a detection medium that turns purple or blue in the presence of alkaline phosphatase. […]
reportedMetric: IC50 (nM)

Observe how each entry below is paired with its result.
C[C@@H]1CN(c2ccc(C#N)c3ncccc23)C[C@@H]2C[C@H](c3ccc(N4C[C@@H](N)[C@@H](F)C4)nc3)CCN21; 15
CO[C@H]1CN(c2ccc(C3CN([C@@H]4CCN5[C@@H](C4)CN(c4ccc(C#N)c6ncccc46)C[C@H]5C)C3)cc2)C[C@H]1N; 48

[P] C[C@@H]1CN(c2ccc(C#N)c3ncccc23)C[C@@H]2C[C@@H](c3ccc(CC4CNCCO4)cc3)CCN21 (stereo partly drawn)
[Q] C[C@@H]1CN(c2ccc(C#N)c3ncccc23)CC2C[C@H](c3ccc(N4CCNCC4)cc3)CCN21 (stereo partly drawn)
[R] C[C@@H]1CN(c2ccc(C#N)c3ncccc23)C[C@@H]2C[C@H](Nc3ccc(C[C@@H]4CNCCO4)cc3)CCN21
[S] C[C@@H]1CN(c2ccc(C#N)c3ncccc23)C[C@@H]2C[C@@H](c3ccc(C4CNCCO4)cc3)CCN21 (stereo partly drawn)
// query Put the items in order so that reported IC50 rises from first to last. Put the labels in the requested order and list them out.
// result S, Q, R, P
(S: 4 nM, Q: 10 nM, R: 20 nM, P: 30 nM)

---

molecular target: human TLR9 (Homo sapiens); test: HEK293-Blue-hTLR-9 cells assay; conditions: HEK293-Blue-hTLR9 cells, ODN2006 stimulation, 20 hrs, SEAP reporter; read-out: HEK/hTLR9 IC50
Sequence (Q9NR96 26-1032): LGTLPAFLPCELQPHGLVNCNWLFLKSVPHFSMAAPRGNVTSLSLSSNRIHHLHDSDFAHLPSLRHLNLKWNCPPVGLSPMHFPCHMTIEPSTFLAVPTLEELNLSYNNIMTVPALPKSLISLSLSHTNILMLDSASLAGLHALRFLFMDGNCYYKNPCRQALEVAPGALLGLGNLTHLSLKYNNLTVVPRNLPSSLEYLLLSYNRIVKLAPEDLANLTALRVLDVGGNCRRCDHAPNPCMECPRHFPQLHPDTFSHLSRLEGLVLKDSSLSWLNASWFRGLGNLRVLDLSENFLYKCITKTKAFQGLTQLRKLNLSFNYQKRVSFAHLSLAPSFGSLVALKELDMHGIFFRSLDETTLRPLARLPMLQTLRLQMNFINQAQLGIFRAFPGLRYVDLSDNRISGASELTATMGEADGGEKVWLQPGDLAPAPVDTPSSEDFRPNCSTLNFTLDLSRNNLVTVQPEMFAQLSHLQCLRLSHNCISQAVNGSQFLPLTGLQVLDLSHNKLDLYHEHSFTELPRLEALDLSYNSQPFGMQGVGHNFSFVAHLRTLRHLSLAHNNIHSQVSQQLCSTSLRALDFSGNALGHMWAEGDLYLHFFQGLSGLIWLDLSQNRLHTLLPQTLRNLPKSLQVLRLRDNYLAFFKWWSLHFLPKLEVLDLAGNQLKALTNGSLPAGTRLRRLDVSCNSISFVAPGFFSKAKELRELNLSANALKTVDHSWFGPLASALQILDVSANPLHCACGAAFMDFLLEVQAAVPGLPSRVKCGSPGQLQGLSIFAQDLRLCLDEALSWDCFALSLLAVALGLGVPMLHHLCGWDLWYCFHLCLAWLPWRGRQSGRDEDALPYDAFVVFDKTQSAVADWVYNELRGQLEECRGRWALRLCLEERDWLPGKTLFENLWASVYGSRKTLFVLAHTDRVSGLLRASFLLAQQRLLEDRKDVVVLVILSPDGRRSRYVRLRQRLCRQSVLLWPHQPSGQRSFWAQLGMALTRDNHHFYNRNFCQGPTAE
reportedMetric: IC50 (nM)

Observe how each entry below is paired with its result.
[2H]c1ccc2c(N3C[C@@H]4C[C@H](Nc5ccc(C[C@H]6CNCCO6)cc5)CCN4[C@H](C)C3)ccc(C#N)c2n1; 57
C[C@@H]1CN(c2ccc(C#N)c3ncccc23)C[C@@H]2C[C@H](c3ccc([C@@H]4CNCCO4)cc3)CCN21; 72
CO[C@H]1CN(c2ccc([C@@H]3CCN4[C@@H](C3)CN(c3ccc(C#N)c5ncccc35)C[C@H]4C)cn2)C[C@@H]1N; 87
C[C@@H]1CN(c2ccc(C#N)c3ncccc23)C[C@@H]2C[C@H](Nc3ccc(C[C@@H]4CNCCO4)cc3)CCN21; 86
CO[C@H]1CN(c2ccc([C@@H]3CCN4[C@@H](C3)CN(c3ccc(C#N)c5ncccc35)C[C@H]4C)cn2)C[C@H]1N; 66

[1] [2H]c1ccc2c(N3C[C@@H]4C[C@H](Nc5ccc(C[C@@H]6CNCCO6)cc5)CCN4[C@H](C)C3)ccc(C#N)c2n1
[2] C[C@@H]1CN(c2ccc(C#N)c3ncccc23)C[C@@H]2C[C@H](Nc3ccc([C@H]4CNCCO4)cc3)CCN21
// query Hi there! Just curious which has the higher IC50 between 1 and 2 . Your choice should be expressed through its label.
// result 1

[1] C[C@@H]1CN(c2ccc(C#N)c3ncccc23)CC2C[C@H](c3ccc(N4CCNCC4)cc3)CCN21 (stereo partly drawn)
[2] CO[C@H]1CN(c2ccc(O[C@H]3CCN4[C@@H](C3)CN(c3ccc(C#N)c5ncccc35)C[C@H]4C)cn2)C[C@H]1N
// query Input pair: 1 , 2 . Output: entry with lower IC50. Your choice should be expressed through its label.
// result 2

---

molecular target: hERG K+ channel (Homo sapiens, UniProt Q12809); construct: expressed in transfected cells; host or cells: CHO (Chinese hamster ovary), CHOhERG; assay: hERG channel inhibition assay (patch-clamp, CHOhERG cells); type: cell-based; conditions: safety ratio
Sequence (Q12809 whole entry): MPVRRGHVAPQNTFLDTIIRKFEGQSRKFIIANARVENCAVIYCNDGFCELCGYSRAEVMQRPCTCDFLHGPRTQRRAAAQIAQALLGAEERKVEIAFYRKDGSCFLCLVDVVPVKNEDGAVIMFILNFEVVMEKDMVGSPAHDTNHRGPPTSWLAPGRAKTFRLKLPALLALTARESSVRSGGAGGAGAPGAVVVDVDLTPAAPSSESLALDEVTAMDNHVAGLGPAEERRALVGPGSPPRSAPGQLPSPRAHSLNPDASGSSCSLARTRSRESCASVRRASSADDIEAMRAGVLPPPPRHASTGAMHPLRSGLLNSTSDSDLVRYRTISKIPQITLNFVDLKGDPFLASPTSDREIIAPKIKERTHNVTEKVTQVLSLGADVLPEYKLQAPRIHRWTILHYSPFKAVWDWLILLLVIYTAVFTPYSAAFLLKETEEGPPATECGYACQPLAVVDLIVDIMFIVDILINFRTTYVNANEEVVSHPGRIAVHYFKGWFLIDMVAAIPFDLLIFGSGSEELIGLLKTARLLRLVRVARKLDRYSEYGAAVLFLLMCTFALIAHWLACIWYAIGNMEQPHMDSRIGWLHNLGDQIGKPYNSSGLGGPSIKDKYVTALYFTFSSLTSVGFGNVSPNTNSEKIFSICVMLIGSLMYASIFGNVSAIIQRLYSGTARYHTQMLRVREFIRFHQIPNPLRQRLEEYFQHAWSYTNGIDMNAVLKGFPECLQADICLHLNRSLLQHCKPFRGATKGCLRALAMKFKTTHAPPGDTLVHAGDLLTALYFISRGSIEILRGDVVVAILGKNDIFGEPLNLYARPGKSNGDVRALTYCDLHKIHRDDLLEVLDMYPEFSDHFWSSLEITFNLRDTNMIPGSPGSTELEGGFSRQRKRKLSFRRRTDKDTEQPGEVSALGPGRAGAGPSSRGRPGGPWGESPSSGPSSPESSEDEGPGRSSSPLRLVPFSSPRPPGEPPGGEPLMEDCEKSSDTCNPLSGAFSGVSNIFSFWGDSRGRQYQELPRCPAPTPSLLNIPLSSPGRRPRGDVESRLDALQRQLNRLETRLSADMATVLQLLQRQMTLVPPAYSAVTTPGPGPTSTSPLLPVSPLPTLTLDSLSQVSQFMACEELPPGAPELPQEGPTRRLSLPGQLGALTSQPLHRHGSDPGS
reportedMetric: hERG IC20/TLR9 IC50

C[C@@H]1CN(c2ccc(C#N)c3ncccc23)C[C@@H]2C[C@H](Nc3ccc([C@H]4CNCCO4)cc3)CCN21; >200
C[C@@H]1CN(c2ccc(C#N)c3ncccc23)C[C@@H]2C[C@@H](Oc3ccc(N4CCNCC4)cn3)CCN21; >111.1
[2H]c1ccc2c(N3C[C@@H]4C[C@H](Nc5ccc(C[C@H]6CNCCO6)cc5)CCN4[C@H](C)C3)ccc(C#N)c2n1; >175.4
CO[C@H]1CN(c2ccc([C@@H]3CCN4[C@@H](C3)CN(c3ccc(C#N)c5ncccc35)C[C@H]4C)cn2)C[C@@H]1N; 105.7

// query Record lookup: for hERG K+ channel (Homo sapiens, UniProt Q12809), what hERG IC20/TLR9 IC50 belongs to `C[C@@H]1CN(c2ccc(C#N)c3ncccc23)C[C@@H]2C[C@H](N3CC(c4ccc(N5CCNCC5)cc4)C3)CCN21` ?
// result >312.5

// query Record lookup: for hERG K+ channel (Homo sapiens, UniProt Q12809), what hERG IC20/TLR9 IC50 belongs to `C[C@@H]1CN(c2ccc(C#N)c3ncccc23)C[C@@H]2C[C@H](Nc3ccc(C[C@@H]4CNCCO4)cc3)CCN21` ?
// result >116.3

---

target: CYP3A4 (Homo sapiens, UniProt P08684); construct: tissue BD-Gentest 452117; host or cells: human liver microsomes; test: CYP inhibition assay in human liver microsome, CYP3A4; format: in vitro ADME; settings: percentage inhibition, substrate Midazolam 5 μM
Sequence (P08684 whole entry): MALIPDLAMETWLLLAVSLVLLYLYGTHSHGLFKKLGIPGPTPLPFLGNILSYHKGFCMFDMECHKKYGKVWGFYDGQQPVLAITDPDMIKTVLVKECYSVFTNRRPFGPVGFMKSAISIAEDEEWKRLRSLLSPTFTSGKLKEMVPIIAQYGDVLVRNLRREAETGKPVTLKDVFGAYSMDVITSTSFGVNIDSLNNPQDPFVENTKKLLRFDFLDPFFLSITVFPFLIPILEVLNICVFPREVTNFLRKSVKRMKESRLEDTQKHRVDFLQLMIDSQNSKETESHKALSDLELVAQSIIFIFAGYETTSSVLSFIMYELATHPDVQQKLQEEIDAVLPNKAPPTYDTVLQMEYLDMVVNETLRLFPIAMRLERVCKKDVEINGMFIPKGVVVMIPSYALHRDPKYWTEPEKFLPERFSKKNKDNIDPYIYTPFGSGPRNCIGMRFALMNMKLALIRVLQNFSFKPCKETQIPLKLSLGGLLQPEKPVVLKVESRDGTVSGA
reportedMetric: CYP (%) 3A4

[a] C[C@@H]1CN(c2ccc(C#N)c3ncccc23)C[C@@H]2C[C@H](c3ccc([C@@H]4CNCCO4)cc3)CCN21
[b] C[C@@H]1CN(c2ccc(C#N)c3ncccc23)C[C@@H]2C[C@H](N3CC(c4ccc(N5CCNCC5)cc4)C3)CCN21
[c] C[C@@H]1CN(c2ccc(C#N)c3ncccc23)C[C@@H]2C[C@H](Nc3ccc(C[C@@H]4CNCCO4)cc3)CCN21
[d] [2H]c1ccc2c(N3C[C@@H]4C[C@H](Nc5ccc(C[C@H]6CNCCO6)cc5)CCN4[C@H](C)C3)ccc(C#N)c2n1
// query Order the 4 molecules from highest to lowest CYP (%) 3A4. Put the labels in the requested order and list them out.
// result a, c, b, d
(a: 37%, c: 15.5%, b: 9.5%, d: 3.5%)

---

target: CYP2C9 (Homo sapiens); construct: tissue BD-Gentest 452117; host or cells: human liver microsomes; assay: CYP inhibition assay in human liver microsome, CYP2C9; type: in vitro ADME; conditions: percentage inhibition, substrate Diclofenac 5 μM
reportedMetric: CYP (%) 2C9

Observe how each entry below is paired with its result.
[2H]c1ccc2c(N3C[C@@H]4C[C@H](N5CCN(c6ccncc6)CC5)CCN4[C@H](C)C3)ccc(C#N)c2n1 [Example 37]; 4.5
C[C@@H]1CN(c2ccc(C#N)c3ncccc23)C[C@@H]2C[C@H](Nc3ccc(C[C@@H]4CNCCO4)cc3)CCN21 [Example 21]; 3
C[C@@H]1CN(c2ccc(C#N)c3ncccc23)C[C@@H]2C[C@H](c3ccc(N4CCNCC4)nc3)CCN21 (stereo in doubt) [Example 2]; 6

[1] C[C@@H]1CN(c2ccc(C#N)c3ncccc23)C[C@@H]2C[C@@H](Oc3ccc(N4CCNCC4)cn3)CCN21 [Example 11]
[2] [2H]c1ccc2c(N3C[C@@H]4C[C@H](Nc5ccc(C[C@H]6CNCCO6)cc5)CCN4[C@H](C)C3)ccc(C#N)c2n1 [Example 34]
[3] CO[C@H]1CN(c2ccc([C@@H]3CCN4[C@@H](C3)CN(c3ccc(C#N)c5ncccc35)C[C@H]4C)cn2)C[C@@H]1N [Example 6]
// query Descending sort on CYP (%) 2C9 required. Put the labels in the requested order and list them out.
// result 1, 3, 2
(1: 0%, 3: −8%, 2: −20%)

[a] C[C@@H]1CN(c2ccc(C#N)c3ncccc23)C[C@@H]2C[C@H](N3CC(c4ccc(N5CCNCC5)cc4)C3)CCN21 [Example 9]
[b] CO[C@H]1CN(c2ccc([C@@H]3CCN4[C@@H](C3)CN(c3ccc(C#N)c5ncccc35)C[C@H]4C)cn2)C[C@H]1N [Example 12]
[c] CO[C@@H]1CN(c2ccc([C@@H]3CCN4[C@@H](C3)CN(c3ccc(C#N)c5ncccc35)C[C@H]4C)cn2)C[C@H]1N [Example 14]
[d] C[C@@H]1CN(c2ccc(C#N)c3ncccc23)C[C@@H]2C[C@H](c3ccc(N4C[C@@H](N)[C@@H](F)C4)nc3)CCN21 [Example 19]
[e] C[C@@H]1CN(c2ccc(C#N)c3ncccc23)C[C@@H]2C[C@H](c3ccc([C@@H]4CNCCO4)cc3)CCN21 [Example 27]
// query Put the items in order so that reported CYP (%) 2C9 rises from first to last. Put the labels in the requested order and list them out.
// result a, d, c, e, b

Data origin, for the record: patent US12421229B2
